Tested on: AW1045 blr::TnphoA
measurementProtocol: E-test susceptibility on LB agar, strain AW1045 blr::TnphoA
Format: cell-based, E. coli
Parameters: unit not given here
Listing of entries alongside the reported susceptibility (E-test strip).
The answer should be written as a number, with no unit following it.

Exam item: Return susceptibility (E-test strip) for the following compound: CO[C@@]1(NC(=O)Cc2cccs2)C(=O)N2C(C(=O)O)=C(COC(N)=O)CS[C@@H]21
Marked response: 1.5

Exam item: Return susceptibility (E-test strip) for the following compound: C[C@@H](O)[C@H]1C(=O)N2C(C(=O)O)=C(SCCN=CN)C[C@H]12
Marked response: 0.125

Exam item: Return susceptibility (E-test strip) for the following compound: CCN1CCN(C(=O)N[C@@H](C(=O)N[C@@H]2C(=O)N3[C@@H]2SC(C)(C)[C@@H]3C(=O)O)c2ccccc2)C(=O)C1=O
Marked response: 0.25

Exam item: Return susceptibility (E-test strip) for the following compound: CC1(C)S[C@@H]2[C@H](NC(=O)[C@H](N)c3ccccc3)C(=O)N2[C@H]1C(=O)O
Marked response: 0.75

###

Listing of entries alongside the reported susceptibility (E-test strip).
System: ASS111rif blr::TnphoA (=RW583)
measurementProtocol: E-test susceptibility on LB agar, strain RW583 without or with plasmids
Format: cell-based, E. coli
Design: unit not given here
conditionsUsed: RW583 + pUC19Sp^R (vector)
The answer should be written as a number, with no unit following it.

# smilesInput, systemName, susceptibility (E-test strip)
rows = [
    ("C[C@@H](O)[C@H]1C(=O)N2C(C(=O)O)=C(SCCN=CN)C[C@H]12", "ASS111rif blr::TnphoA (=RW583)", 0.125),
    ("CO[C@@]1(NC(=O)Cc2cccs2)C(=O)N2C(C(=O)O)=C(COC(N)=O)CS[C@@H]21", "ASS111rif blr::TnphoA (=RW583)", 0.75),
    ("CCN1CCN(C(=O)N[C@@H](C(=O)N[C@@H]2C(=O)N3[C@@H]2SC(C)(C)[C@@H]3C(=O)O)c2ccccc2)C(=O)C1=O", "ASS111rif blr::TnphoA (=RW583)", 1.25),
]

Could you now look at the following compound, please?
Exam item: Return susceptibility (E-test strip) for the following compound: CC1(C)S[C@@H]2[C@H](NC(=O)[C@H](N)c3ccccc3)C(=O)N2[C@H]1C(=O)O
Marked response: 0.25
